As shown below, each of these binders has a reported Kd value.
molecular target: T1, eukaryotic translation initiation factor 4E (eIF4E), full length human (human, UniProt P06730 2-217); assay: ITC, apparent Kd
T1 construct: mature; read as P06730; also called eIF4E protein
T1 sequence (P06730 2-217): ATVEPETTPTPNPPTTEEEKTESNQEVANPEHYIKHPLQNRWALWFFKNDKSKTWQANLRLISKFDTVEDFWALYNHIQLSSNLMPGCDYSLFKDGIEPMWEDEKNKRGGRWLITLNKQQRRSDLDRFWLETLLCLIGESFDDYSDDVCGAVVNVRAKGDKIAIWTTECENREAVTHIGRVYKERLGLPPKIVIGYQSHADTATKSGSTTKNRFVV
Square brackets hold non-standard residues; d marks the D form. Ends that are not written are not given here. αMeF = C[C@](N)(Cc1ccccc1)C(=O)O; Ac5c = NC1(C(=O)O)CCCC1
Give your result in nM as a bare value.

[
  {
    "BINDER": "YGRKKRRQRRRGTKKRYDRE[αMeF]LL[Ac5c]FQF [TAT_eIF4G1_me5 peptide (YGRKKRRQRRRGTKKRYDRE*LL5FQF)]",
    "READOUT KIND": "Kd",
    "OBSERVED RESULT": 10.2
  }
]

// next item, Kd requested
## Task Please look up its Kd: YGRKKRRQRRRGTKKRYDREFLLGFQF (also called eIF4G1 TAT fused peptide) [TAT_eIF4G1 peptide]
## Result 56.2
